TARGET ENTITY: DHFR-C-HiBiT (Homo sapiens)
Sequence (P00374 2-187): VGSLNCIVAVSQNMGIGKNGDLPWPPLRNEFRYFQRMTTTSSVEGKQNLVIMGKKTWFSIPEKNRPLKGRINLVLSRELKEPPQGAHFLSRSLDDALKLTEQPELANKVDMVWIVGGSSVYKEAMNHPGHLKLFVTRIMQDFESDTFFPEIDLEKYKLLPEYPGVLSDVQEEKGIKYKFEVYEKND
PROCEDURE SUMMARY: SDR assay, purified DHFR-C-HiBiT
EXPERIMENTAL PARAMETERS: DHFR-C-HiBiT 0.5 nM, 5 μM NADPH (SDR) vs 100 nM, 75 μM NADPH (functional)
Assign enhanced sensitivity in the SDR assay format versus functional DHFR assay to each entry below.

Query: Item "Nc1nc(N)c2nc(CNc3ccc(C(=O)N[C@@H](CCC(=O)O)C(=O)O)cc3)cnc2n1" has what recorded enhanced sensitivity in the SDR assay format versus functional DHFR assay?
Response: ~ 100 fold

Query: # iterate: C#CCC(Cc1cnc2nc(N)nc(N)c2n1)c1ccc(C(=O)N[C@@H](CCC(=O)O)C(=O)O)cc1 (stereo partly shown) [pralatrexate]
Response: ~ 100 fold

Query: # iterate: CN(Cc1cnc2nc(N)nc(N)c2n1)c1ccc(C(=O)NC(CC(F)C(=O)O)C(=O)O)cc1 (stereo not shown) [γ-fluoromethotrexate]
Response: ~ 100 fold

Query: # iterate: COc1cc(NCc2ccc3nc(N)nc(N)c3c2C)cc(OC)c1OC [trimetrexate]
Response: ~ 100 fold

###

TARGET ENTITY: ABL1-N-HiBiT kinase domain (Homo sapiens)
Sequence (P00519 233-500): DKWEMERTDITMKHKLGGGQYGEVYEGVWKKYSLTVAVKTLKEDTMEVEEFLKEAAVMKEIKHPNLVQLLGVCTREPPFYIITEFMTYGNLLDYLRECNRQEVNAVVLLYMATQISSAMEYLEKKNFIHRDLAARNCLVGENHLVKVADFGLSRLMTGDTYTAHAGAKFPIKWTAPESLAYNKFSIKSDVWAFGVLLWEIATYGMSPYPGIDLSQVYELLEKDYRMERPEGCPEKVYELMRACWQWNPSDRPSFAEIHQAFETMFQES
PROCEDURE SUMMARY: SDR assay, ABL1-N-HiBiT
READOUT TYPE: EC50
# output: number + unit

Query: Item Nc1ncnc2c1ncn2[C@@H]1O[C@H](COP(=O)(O)OP(=O)(O)OP(=O)(O)O)[C@@H](O)[C@H]1O [ATP] has what recorded EC50?
Response: 24.5 µM

###

Assign SDR Ave Max Response to each entry below.
TARGET ENTITY: PKA-N-HiBiT (Homo sapiens)
PROCEDURE SUMMARY: SDR assay, PKA-N-HiBiT
EXPERIMENTAL PARAMETERS: PKA-N-HiBiT qHTS, SDR assay; average maximal response
Where a name gives a salt, the structure may show the parent alone.
Give a plain numeric answer without units written out.

Query: Item "c1ccc2c(-c3cnn4cc(-c5ccc(N6CCNCC6)cc5)cnc34)ccnc2c1" has what recorded SDR Ave Max Response?
Response: 5.66

Query: # iterate: "O=C(Nc1cc(C(F)(F)F)ccc1N1CCCCC1)c1ccncc1"
Response: 1.60

Query: # iterate: "CCN1/C(=C/C(C)=O)Sc2ccc(OC)cc21"
Response: 6.70

Query: # iterate: "C[C@@H]1CCNC(=O)c2cc3ccc(C(=O)Nc4nc5ccccc5n4CCCN(C)C)cc3n21"
Response: 10.58

Query: # iterate: "CNC(=O)c1ccccc1Nc1nc(Nc2ccc(N3CCOCC3)cc2OC)ncc1Cl"
Response: 11.43

Query: # iterate: "O=C(Nc1ccc(OC(F)(F)F)cc1)c1sccc1NCc1ccnc2ccccc12"
Response: 9.10

Query: # iterate: "O=C(c1cccc(Cl)c1F)N1CCN(Cc2cccc(Nc3nccs3)n2)CC1"
Response: -13.81

Query: # iterate: "COc1cc2c(cc1OC)-c1[nH]nc(Nc3cccc(F)c3)c1C2"
Response: 5.85

Query: # iterate: O=C(NCCCNc1nc(Nc2ccc(N3CCOCC3)cc2)ncc1C1CC1)C1CCC1 [MRT-68601 HCl]
Response: 1.65

Query: # iterate: "c1ccc(-c2oc3ncnc(NC[C@@H]4CCCO4)c3c2-c2ccccc2)cc1"
Response: 5.90
